Source listed as paper PMC7954794.

# Tested on: 575 putative partners (preys) of 22 WT SH3-containing proteins
# test method notes: DHFR-PCA on solid medium, WT and SH3-deleted baits (Fig. 1B)
# Format: cell-based, Saccharomyces cerevisiae
# Design: key: 0: SH3-independent; 1: SH3-dependent PPIs; 2: SH3-inhibited PPIs
# condition context: bait SLA1-3, label = prey
readout: Score

Qu. Consider the molecule YCR009C (protein, UniProt P25343 1-265, looked up) Reduced viability upon …: MSWEGFKKAINRAGHSVIIKNVDKTIDKEYDMEERRYKVLQRAGEALQKEAKGFLDSLRAVTASQTTIAEVISNLYDDSKYVAGGGYNVGNYYLQCVQDFDSETVKQLDGPLRETVLDPITKFSTYFKEIEEAIKKRDHKKQDFDAAKAKVRRLVDKPAKDASKLPRAEKELSLAKDIFENLNNQLKTELPQLVSLRVPYFDPSFEALIKIQLRFCTDGYTRLAQIQQYLDQQSRDDYANGLLDTKIEELLGQMTSLDICALGIK and give its recorded Score.
Ans. 0

Qu. Look up and state reported Score for YFR004W (protein, UniProt P43588 1-306, looked up) Ubiquitin carboxyl-terminal …: MERLQRLMMNSKVGSADTGRDDTKETVYISSIALLKMLKHGRAGVPMEVMGLMLGEFVDDYTVNVVDVFAMPQSGTGVSVEAVDDVFQAKMMDMLKQTGRDQMVVGWYHSHPGFGCWLSSVDVNTQKSFEQLNSRAVAVVVDPIQSVKGKVVIDAFRLIDTGALINNLEPRQTTSNTGLLNKANIQALIHGLNRHYYSLNIDYHKTAKETKMLMNLHKEQWQSGLKMYDYEEKEESNLAATKSMVKIAEQYSKRIEEEKELTEEELKTRYVGRQDPKKHLSETADETLENNIVSVLTAGVNSVAIK
Ans. 0
